- SYSTEM_UNDER_TEST: LRRK2 G2019S mutant kinase (Homo sapiens, UniProt Q5S007, G2019S)
- Construct: GST
- Sequence (Q5S007 whole entry G2019S): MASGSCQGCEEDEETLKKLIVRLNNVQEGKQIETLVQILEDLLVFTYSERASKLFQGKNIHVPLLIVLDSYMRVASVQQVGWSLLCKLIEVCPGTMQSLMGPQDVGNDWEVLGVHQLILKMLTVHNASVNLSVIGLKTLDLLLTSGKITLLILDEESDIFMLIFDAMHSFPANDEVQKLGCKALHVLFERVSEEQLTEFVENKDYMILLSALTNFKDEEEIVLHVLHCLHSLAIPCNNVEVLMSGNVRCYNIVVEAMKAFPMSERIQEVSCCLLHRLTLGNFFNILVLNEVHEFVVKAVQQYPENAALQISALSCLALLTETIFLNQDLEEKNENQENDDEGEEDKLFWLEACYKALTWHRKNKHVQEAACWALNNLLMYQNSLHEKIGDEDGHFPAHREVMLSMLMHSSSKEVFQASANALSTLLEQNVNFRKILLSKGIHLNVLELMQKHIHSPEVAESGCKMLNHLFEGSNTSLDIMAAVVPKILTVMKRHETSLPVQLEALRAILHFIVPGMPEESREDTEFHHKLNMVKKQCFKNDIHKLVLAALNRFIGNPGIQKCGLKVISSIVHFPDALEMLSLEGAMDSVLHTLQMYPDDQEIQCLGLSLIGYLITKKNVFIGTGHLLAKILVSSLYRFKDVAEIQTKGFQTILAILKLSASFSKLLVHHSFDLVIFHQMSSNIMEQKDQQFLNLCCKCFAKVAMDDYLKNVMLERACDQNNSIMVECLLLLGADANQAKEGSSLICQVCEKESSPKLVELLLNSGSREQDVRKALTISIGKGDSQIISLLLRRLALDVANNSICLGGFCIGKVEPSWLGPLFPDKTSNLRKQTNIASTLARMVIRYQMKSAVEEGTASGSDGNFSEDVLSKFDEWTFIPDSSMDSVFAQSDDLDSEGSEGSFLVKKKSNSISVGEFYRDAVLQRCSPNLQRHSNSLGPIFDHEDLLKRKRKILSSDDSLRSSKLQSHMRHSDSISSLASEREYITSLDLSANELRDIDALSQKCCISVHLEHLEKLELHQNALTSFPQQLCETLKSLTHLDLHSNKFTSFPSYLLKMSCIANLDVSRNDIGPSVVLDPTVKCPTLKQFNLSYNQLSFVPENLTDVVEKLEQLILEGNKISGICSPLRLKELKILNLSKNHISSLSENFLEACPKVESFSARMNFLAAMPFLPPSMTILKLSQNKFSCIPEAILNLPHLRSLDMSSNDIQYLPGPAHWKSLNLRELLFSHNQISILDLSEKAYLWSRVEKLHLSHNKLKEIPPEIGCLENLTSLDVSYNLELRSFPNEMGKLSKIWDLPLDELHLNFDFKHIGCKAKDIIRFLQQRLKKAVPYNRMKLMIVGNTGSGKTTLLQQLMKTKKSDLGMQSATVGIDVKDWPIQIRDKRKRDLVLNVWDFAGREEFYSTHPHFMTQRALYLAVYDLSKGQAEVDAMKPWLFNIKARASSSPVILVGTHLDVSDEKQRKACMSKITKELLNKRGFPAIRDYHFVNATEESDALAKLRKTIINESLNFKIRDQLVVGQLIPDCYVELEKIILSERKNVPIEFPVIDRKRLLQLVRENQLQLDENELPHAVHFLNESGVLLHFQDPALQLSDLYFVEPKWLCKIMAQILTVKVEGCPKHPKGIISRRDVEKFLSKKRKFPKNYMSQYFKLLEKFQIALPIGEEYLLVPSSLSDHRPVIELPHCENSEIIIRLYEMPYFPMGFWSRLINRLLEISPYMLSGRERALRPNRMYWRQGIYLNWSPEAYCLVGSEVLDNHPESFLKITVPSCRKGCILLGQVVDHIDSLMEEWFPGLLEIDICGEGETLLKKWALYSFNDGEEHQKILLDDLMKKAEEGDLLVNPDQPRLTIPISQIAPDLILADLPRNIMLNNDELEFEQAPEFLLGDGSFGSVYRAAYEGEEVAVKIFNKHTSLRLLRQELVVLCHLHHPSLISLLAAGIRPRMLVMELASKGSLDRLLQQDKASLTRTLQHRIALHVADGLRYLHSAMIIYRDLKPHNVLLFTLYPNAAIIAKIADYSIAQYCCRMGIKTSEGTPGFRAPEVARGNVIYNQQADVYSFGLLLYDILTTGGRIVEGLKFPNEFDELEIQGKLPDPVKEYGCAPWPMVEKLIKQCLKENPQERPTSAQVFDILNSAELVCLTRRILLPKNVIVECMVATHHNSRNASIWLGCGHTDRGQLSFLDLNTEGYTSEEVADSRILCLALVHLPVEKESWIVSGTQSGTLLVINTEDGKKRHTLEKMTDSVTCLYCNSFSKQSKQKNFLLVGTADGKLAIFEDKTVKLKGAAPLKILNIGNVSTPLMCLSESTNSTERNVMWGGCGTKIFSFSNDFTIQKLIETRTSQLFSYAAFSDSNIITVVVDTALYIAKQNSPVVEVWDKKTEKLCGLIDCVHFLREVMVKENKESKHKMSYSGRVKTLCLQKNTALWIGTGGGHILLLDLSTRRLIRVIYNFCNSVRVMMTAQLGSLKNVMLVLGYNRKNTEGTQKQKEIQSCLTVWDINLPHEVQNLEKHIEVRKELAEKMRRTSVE
- METHOD: LRRK2 G2019S LanthaScreen TR-FRET kinase assay
- RECORDED_CONDITIONS: LRRK2 G2019S GST-tagged protein, 100 μM ATP, LRRKtide substrate; read-out: IC50 (potency)
- Method: Activity of compounds against LRRK2 G2019S mutant kinase function was tested in a LANTHAScreen® assay as follows: Compounds were diluted in 100% DMSO to the desired test concentrations in white, low-volume 384-well plates (PerkinElmer ProxiPlate® PN: 6008280). […]
# if measured IC50 < 200 nM: true  # else: false

**Query** Determine whether this molecule shows IC50 lower than 200 nM (ties excluded): CC1(C)CC(=O)c2c(SC3CCCC3)sc(-c3ccn(C(=O)NCCc4ccccc4)n3)c2C1 [Example 69]
**Result** false

**Query** Continue with CC1(C)CC(=O)c2c(SC3CCCC3)sc(-c3ccn(C(=O)Nc4ccc(C(F)(F)F)cc4)n3)c2C1 [Example 59]
**Result** true

**Query** Continue with CCNc1sc(-c2cc[nH]n2)c2c1C(=O)CC(C)(C)C2 [Example 38]
**Result** false

**Query** Continue with CC1(C)CC(=O)c2c(SC3CCCC3)sc(-c3ccn(C(=O)Nc4ccc5ccccc5c4)n3)c2C1 [Example 63]
**Result** true

**Query** Continue with CC(C)CSc1sc(-c2cc[nH]n2)c2c1C(=O)CC(C)(C)C2 [Example 26]
**Result** true

**Query** Continue with CC1(C)CC(=O)c2c(SCC(F)(F)F)sc(-c3cc[nH]n3)c2C1 [Example 29]
**Result** false

**Query** Continue with CC1(C)CC(=O)c2c(SC3CCCC3)sc(-c3ccn(C(=O)NC(C)(C)C)n3)c2C1 [Example 70]
**Result** false
